Target: human GR (Homo sapiens, UniProt P04150)
Construct: SW1353 naturally expresses human GR; endogenous in cells
Experiment: GR agonist potency, MMTV-luciferase reporter in SW1353 cells
Settings: human chondrosarcoma cell-line SW1353 stably transfected with MMTV-luciferase reporter; approx. 18 hours; data as percentage of 1 μM dexamethasone positive control
Endpoint Label: EC50 (nM)
The reply should be a number in nM, with the unit left off.

>  <Chem Smiles>
C[C@]12C=CC(=O)C=C1CC[C@H]1[C@@H]3CC[C@](OC(=O)c4ccc(Sc5ccc(Cl)c(O)c5)cc4)(C(=O)OCC#N)[C@@]3(C)C[C@H](O)[C@@]12F

>  <Endpoint Label>
EC50

>  <Value Observed>
44.1

$$$$

Shift focus to the following entry.
For C[C@]12C=CC(=O)C=C1CC[C@H]1[C@@H]3CC[C@](OC(=O)c4ccc(Sc5ccccc5)cc4)(C(=O)OCC#N)[C@@]3(C)C[C@H](O)[C@@]12F the compound record lists EC50 as 25

---

Biological target: human GR (Homo sapiens)
Construct: SW1353 naturally expresses human GR; endogenous in cells
Experiment: GR agonist potency, MMTV-luciferase reporter in SW1353 cells
Details: human chondrosarcoma cell-line SW1353 stably transfected with MMTV-luciferase reporter; approx. 18 hours; data as percentage of 1 μM dexamethasone positive control
EC50: recorded values

Solved entries:
>  <Chem Smiles>
C[C@@H]1C[C@H]2[C@@H]3C[C@H](F)C4=CC(=O)C=C[C@]4(C)[C@@]3(F)[C@@H](O)C[C@]2(C)[C@@]1(OC(=O)c1ccc(Oc2ccc(Cl)c(O)c2)cc1)C(=O)OCF

>  <Endpoint Label>
EC50

>  <Value Observed>
7.73 nM

$$$$
>  <Chem Smiles>
C[C@]12C=CC(=O)C=C1CC[C@H]1[C@@H]3CC[C@](OC(=O)c4ccc(Oc5ccccc5)cc4O)(C(=O)OCC#N)[C@@]3(C)C[C@H](O)[C@@]12F

>  <Endpoint Label>
EC50

>  <Value Observed>
49 nM

$$$$

Pending compound:
The measured EC50 associated with CSc1ccc(Sc2ccc(C(=O)O[C@]3(C(=O)OCF)[C@H](C)C[C@H]4[C@@H]5C[C@H](F)C6=CC(=O)C=C[C@]6(C)[C@@]5(F)[C@@H](O)C[C@@]43C)cc2)cc1 reads 11.5 nM

---

Target: human GR (Homo sapiens)
Construct: SW1353 naturally expresses human GR; endogenous in cells
Test: GR agonist potency, MMTV-luciferase reporter in SW1353 cells
Conditions: human chondrosarcoma cell-line SW1353 stably transfected with MMTV-luciferase reporter; approx. 18 hours; data as percentage of 1 μM dexamethasone positive control
Catalogue of EC50 values
Lab book: enter the figure in nM, no units written.

// solved cases for EC50 follow
>  <Chem Smiles>
C[C@]12C=CC(=O)C=C1CC[C@H]1[C@@H]3CC[C@](OC(=O)c4ccc(Oc5ccccc5)cc4)(C(=O)SCC#N)[C@@]3(C)C[C@H](O)[C@@]12F

>  <Test Target>
human GR (Homo sapiens)

>  <EC50 (nM)>
78.4

$$$$
>  <Chem Smiles>
C[C@]12C=CC(=O)C=C1CC[C@H]1[C@@H]3CC[C@](OC(=O)c4ccc(Oc5ccc(O)c(Cl)c5)cc4)(C(=O)SCF)[C@@]3(C)C[C@H](O)[C@@]12F

>  <Test Target>
human GR (Homo sapiens)

>  <EC50 (nM)>
42.6

$$$$

Please look at the following molecule next.
Summary: C[C@]12C=CC(=O)C=C1[C@@H](F)C[C@H]1[C@@H]3CC[C@](OC(=O)c4ccc(CSc5ccccc5)cc4)(C(=O)OCC#N)[C@@]3(C)C[C@H](O)[C@@]12F , human GR (Homo sapiens), EC50 = 33.3

---

Biological target: human GR (Homo sapiens)
Construct: SW1353 naturally expresses human GR; endogenous in cells
Experiment: GR agonist potency, MMTV-luciferase reporter in SW1353 cells
Conditions: human chondrosarcoma cell-line SW1353 stably transfected with MMTV-luciferase reporter; approx. 18 hours; data as percentage of 1 μM dexamethasone positive control
# if measured EC50 < 40 nM: Condition met  # else: Condition not met

>  <Chem Smiles>
C[C@]12C=CC(=O)C=C1[C@@H](F)C[C@H]1[C@@H]3CC[C@](OC(=O)c4ccc(-c5ccccc5)cc4)(C(=O)OCC#N)[C@@]3(C)C[C@H](O)[C@@]12F

>  <Class Name>
Condition not met

$$$$

Ask: Quick check: EC50 of CSc1cccc(Oc2ccc(C(=O)O[C@]3(C(=O)OCF)[C@H](C)C[C@H]4[C@@H]5C[C@H](F)C6=CC(=O)C=C[C@]6(C)[C@@]5(F)[C@@H](O)C[C@@]43C)cc2)c1 under 40 nM?
Reply: Condition met

Ask: EC50 under 40 nM? Item: C[C@]12C=CC(=O)C=C1[C@@H](F)C[C@H]1[C@@H]3CC[C@](OC(=O)c4ccc(Cc5ccccc5)cc4)(C(=O)OCC#N)[C@@]3(C)C[C@H](O)[C@@]12F
Reply: Condition met

Ask: Dear colleague, could you confirm whether EC50 of C[C@]12C=CC(=O)C=C1CC[C@H]1[C@@H]3CC[C@](OC(=O)c4ccc(Sc5ccc(O)c(Cl)c5)cc4)(C(=O)SCF)[C@@]3(C)C[C@H](O)[C@@]12F falls below 40 nM? Thanks.
Reply: Condition not met

---

Biological target: human GR (Homo sapiens)
Construct: SW1353 naturally expresses human GR; endogenous in cells; host or cells: human chondrosarcoma cell-line SW1353 stably transfected with an MMTV-luciferase reporter construct
Sequence (P04150 1-777): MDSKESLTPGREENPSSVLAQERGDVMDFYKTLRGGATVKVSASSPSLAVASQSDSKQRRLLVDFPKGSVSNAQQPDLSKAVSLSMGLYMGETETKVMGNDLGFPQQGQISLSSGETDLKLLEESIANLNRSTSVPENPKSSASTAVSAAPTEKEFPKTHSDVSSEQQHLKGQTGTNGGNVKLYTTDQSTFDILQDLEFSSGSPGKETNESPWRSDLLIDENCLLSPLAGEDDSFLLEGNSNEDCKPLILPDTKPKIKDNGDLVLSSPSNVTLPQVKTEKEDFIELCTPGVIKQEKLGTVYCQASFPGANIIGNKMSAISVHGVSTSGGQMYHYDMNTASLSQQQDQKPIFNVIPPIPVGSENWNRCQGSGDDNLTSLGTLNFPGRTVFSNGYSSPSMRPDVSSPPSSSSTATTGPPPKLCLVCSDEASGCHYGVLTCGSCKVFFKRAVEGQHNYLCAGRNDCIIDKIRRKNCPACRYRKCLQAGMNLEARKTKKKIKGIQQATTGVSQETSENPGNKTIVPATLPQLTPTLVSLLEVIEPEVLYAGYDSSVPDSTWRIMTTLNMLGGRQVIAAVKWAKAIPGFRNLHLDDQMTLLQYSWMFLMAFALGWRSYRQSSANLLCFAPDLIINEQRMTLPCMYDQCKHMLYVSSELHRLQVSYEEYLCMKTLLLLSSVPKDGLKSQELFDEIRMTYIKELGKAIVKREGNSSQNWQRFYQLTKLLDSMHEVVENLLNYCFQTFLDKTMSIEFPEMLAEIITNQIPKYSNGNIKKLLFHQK
Experiment: GR agonist potency, MMTV-luciferase reporter in SW1353 cells
Format: cell-based
Settings: human chondrosarcoma cell-line SW1353 stably transfected with MMTV-luciferase reporter; approx. 18 hours; data as percentage of 1 μM dexamethasone positive control
Known pEC50 of a selection of compounds
# pEC50 = -log10(concentration in molar units)

Some solved cases for reference:
>  <Compound>
C[C@]12C=CC(=O)C=C1CC[C@H]1[C@@H]3CC[C@](OC(=O)c4ccc(Oc5ccc(Cl)c(O)c5)cc4)(C(=O)SCF)[C@@]3(C)C[C@H](O)[C@@]12F

>  <pEC50>
7.51

$$$$
>  <Compound>
CSc1cccc(Sc2ccc(C(=O)O[C@]3(C(=O)SCF)CC[C@H]4[C@@H]5CCC6=CC(=O)C=C[C@]6(C)[C@@]5(F)[C@@H](O)C[C@@]43C)cc2)c1

>  <pEC50>
7.28

$$$$
>  <Compound>
C[C@]12C=CC(=O)C=C1CC[C@H]1[C@@H]3CC[C@](OC(=O)c4ccc(Oc5ccc(O)nc5)cc4)(C(=O)OCC#N)[C@@]3(C)C[C@H](O)[C@@]12F

>  <pEC50>
7.79

$$$$

Record summary for C[C@]12C=CC(=O)C=C1CC[C@H]1[C@@H]3CC[C@](OC(=O)c4ccc(Oc5ccc(O)c(Cl)c5)cc4)(C(=O)SCC#N)[C@@]3(C)C[C@H](O)[C@@]12F : reported pEC50 = 6.93

Looking up C[C@]12C=CC(=O)C=C1CC[C@H]1[C@@H]3CC[C@](OC(=O)c4ccc(Sc5ccccc5O)cc4)(C(=O)OCC#N)[C@@]3(C)C[C@H](O)[C@@]12F , I found its pEC50 recorded as 7.12

Form field pEC50, entry CSc1ccc(Sc2ccc(C(=O)O[C@]3(C(=O)OCC#N)[C@H](C)C[C@H]4[C@@H]5C[C@H](F)C6=CC(=O)C=C[C@]6(C)[C@@]5(F)[C@@H](O)C[C@@]43C)cc2)cc1 : 7.35

The compound identified as C[C@]12C=CC(=O)C=C1[C@@H](F)C[C@H]1[C@@H]3CC[C@](OC(=O)c4ccc(Sc5ccccc5)cc4)(C(=O)OCC#N)[C@@]3(C)C[C@H](O)[C@@]12F registered its pEC50 at 7.30

response.value for CSc1cccc(Sc2ccc(C(=O)O[C@]3(C(=O)OCF)[C@H](C)C[C@H]4[C@@H]5C[C@H](F)C6=CC(=O)C=C[C@]6(C)[C@@]5(F)[C@@H](O)C[C@@]43C)cc2)c1 (field: pEC50) = 7.93

// pEC50 value for C[C@]12C=CC(=O)C=C1[C@@H](F)C[C@H]1[C@@H]3CC[C@](OC(=O)c4ccc(OCc5ccccc5)cc4)(C(=O)CO)[C@@]3(C)C[C@H](O)[C@@]12F : 6.99

response.value for CC12C=CC(=O)C=C1CCC1C3CCC(OC(=O)c4ccc(Sc5ccc(O)cc5)cc4)(C(=O)OCC#N)C3(C)CC(O)C12F (stereo not drawn) (field: pEC50) = 7.46

# pEC50 (compound: CSc1ccc(Oc2ccc(C(=O)O[C@]3(C(=O)OCC#N)[C@H](C)C[C@H]4[C@@H]5C[C@H](F)C6=CC(=O)C=C[C@]6(C)[C@@]5(F)[C@@H](O)C[C@@]43C)cc2)cc1 ) is 7.85

Per the record, C[C@]12C=CC(=O)C=C1CC[C@H]1[C@@H]3CC[C@](OC(=O)c4ccc(Cc5ccccc5)cc4)(C(=O)SCF)[C@@]3(C)C[C@H](O)[C@@]12F has pEC50 of 7.16
